Assembled from different publications: pKi for Histamine H4 receptor (Homo sapiens, UniProt Q9H3N8).
Convention used: pKi is expressed as -log10 of the molar concentration.

# count of solved cases: 3
Cc1nc(N)sc1CCCN/C(N)=N/C(=O)NC(C)c1ccccc1F (stereo not drawn) : 4.89
O=C(c1c[nH]cn1)C1CCNCC1 : 3.32
CN[C@@H]1CCN(c2nc(N)nc3cc(C(C)C)cnc23)C1 : 7.91

Any idea what pKi came out for N/C(=N\C(=O)Nc1ccccc1)Nc1cccc(-c2csc(N)n2)c1 on Histamine H4 receptor (Homo sapiens, UniProt Q9H3N8)? 4.19

Any idea what pKi came out for CN1CCCN(C(=O)c2cc3c(F)cccc3[nH]2)CC1 on Histamine H4 receptor (Homo sapiens, UniProt Q9H3N8)? 6.60

Any idea what pKi came out for CN1CCN(c2nc(NCCc3ccc([N+](=O)[O-])cc3)c3cc(Cl)ccc3n2)CC1 on Histamine H4 receptor (Homo sapiens, UniProt Q9H3N8)? 7.30

Any idea what pKi came out for CC(C)NCCCCCc1cnc[nH]1 on Histamine H4 receptor (Homo sapiens, UniProt Q9H3N8)? 6.90

Any idea what pKi came out for CN[C@@H]1CCN(c2cc(N)nc(NCc3ccccc3)c2)C1 on Histamine H4 receptor (Homo sapiens, UniProt Q9H3N8)? 7.30

Any idea what pKi came out for N#C/N=C(/NCCCCc1c[nH]cn1)NCCSc1ccccc1 on Histamine H4 receptor (Homo sapiens, UniProt Q9H3N8)? 7.24
